Source: ChEMBL document CHEMBL4602695

Kindly state pIC50 for each of the entries shown.
# Target under test: CDK6/cyclin D3 (Homo sapiens, UniProt Q00534)
# Sequence (P30281 whole entry): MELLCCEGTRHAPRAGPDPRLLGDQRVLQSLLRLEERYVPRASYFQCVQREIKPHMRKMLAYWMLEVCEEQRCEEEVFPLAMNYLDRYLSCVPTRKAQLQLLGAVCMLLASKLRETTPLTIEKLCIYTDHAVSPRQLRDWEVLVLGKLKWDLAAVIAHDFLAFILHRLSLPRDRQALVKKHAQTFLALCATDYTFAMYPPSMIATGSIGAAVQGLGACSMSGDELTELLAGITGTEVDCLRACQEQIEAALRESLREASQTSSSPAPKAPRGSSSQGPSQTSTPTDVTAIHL
# Sequence (Q00534 whole entry): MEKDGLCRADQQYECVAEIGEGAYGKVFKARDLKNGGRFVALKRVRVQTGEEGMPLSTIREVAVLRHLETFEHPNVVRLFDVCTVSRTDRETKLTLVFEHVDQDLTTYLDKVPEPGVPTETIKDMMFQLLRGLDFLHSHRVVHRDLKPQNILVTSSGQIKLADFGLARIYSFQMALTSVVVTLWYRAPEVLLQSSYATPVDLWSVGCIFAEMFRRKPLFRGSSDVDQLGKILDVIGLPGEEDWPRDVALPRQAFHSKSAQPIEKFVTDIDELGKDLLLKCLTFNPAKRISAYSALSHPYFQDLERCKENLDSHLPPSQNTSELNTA
Numbers only, as −log10 of the molar value.

> print(dat)
                                smiles.repr  endpoint.result
1  COc1ccc(Nc2nc(Nc3ccc(N4CCN(C)CC4)cn3)ncc2Cl)cc1             6.22
2  CCc1ccc(Nc2nc(Nc3ccc(N4CCN(C)CC4)cn3)ncc2Cl)cc1             6.55

[Q] // returns reported pIC50 for input CC(=O)Nc1cccc(Nc2nc(Nc3ccc(N4CCN(C)CC4)cn3)ncc2Cl)c1
[A] 7.39

----------
# Target under test: CDK9/Cyclin K (Homo sapiens) (UniProt P50750+O75909)
# Condition label: Sf9
Calls of active or inactive are those of the source. The calls are words filed in the database; no cut-off is given here.
Attribute measured: inhibition

A selection of reference data follows.
> print(dat)
                                smiles.repr  endpoint.result
1  CN1CCN(c2ccc(Nc3ncc(Cl)c(Nc4ccc(F)cc4)n3)nc2)CC1         inactive
2  CN1CCN(c2ccc(Nc3ncc(Cl)c(Nc4ccccc4F)n3)nc2)CC1         inactive
3  CN1CCN(c2ccc(Nc3ncc(Cl)c(Nc4ccc(OC(F)(F)F)cc4)n3)nc2)CC1         inactive
4  CN1CCN(c2ccc(Nc3ncc(Cl)c(Nc4ccc(F)c(C(F)(F)F)c4)n3)nc2)CC1         inactive
5  CN1CCN(c2ccc(Nc3ncc(Cl)c(Nc4cccc(F)c4)n3)nc2)CC1         inactive

For every item in the list below, what is its measured inhibition?
1. CN1CCN(c2ccc(Nc3ncc(Cl)c(Nc4ccc(C(F)(F)F)cc4)n3)nc2)CC1
2. CN1CCN(c2ccc(Nc3ncc(Cl)c(Nc4cccc(OC(F)(F)F)c4)n3)nc2)CC1

[A]
inactive
inactive

----------
# Assay name: Cytotoxicity against human L02 cells assessed as inhibition of cell proliferation measured after 48 hrs by CCK8 assay
# Assay type: cell-based
Kindly state log10(GI50 at 48 h) for each of the entries shown.
The figures below represent log10 of GI50 at 48 h, where GI50 at 48 h is stated in µM.

Previously resolved entries follow.
> print(dat)
                                smiles.repr  endpoint.result
1  CN1CCN(c2ccc(Nc3ncc(Cl)c(NCc4ccccc4)n3)nc2)CC1             1.31
2  Cc1ccccc1Nc1nc(Nc2ccc(N3CCN(C(=O)OC(C)(C)C)CC3)cc2)ncc1Cl             0.24
3  CN1CCN(c2ccc(Nc3ncc(Cl)c(NCc4ccco4)n3)nc2)CC1             1.66

Answer for every listed entry: what is its log10(GI50 at 48 h)? The entries follow.
1. COc1ccccc1CNc1nc(Nc2ccc(N3CCN(C)CC3)cn2)ncc1Cl
2. Cc1ccccc1Nc1nc(Nc2ccc(N3CCN(C)CC3)cn2)ncc1Cl

[A]
1.41
0.78

----------
# Assay name: Cmax in Sprague-Dawley rat at 10 mg/kg, po by LC-MS/MS analysis
# Type: ADME, organism-based
# Set-up: dose 10 mg/kg, route oral
# Condition label: in vivo
Attribute measured: Cmax (ng/mL)
Numbers only, in ng/mL.

[Q] Give the measured Cmax of CC(=O)Nc1cccc(Nc2nc(Nc3ccc(N4CCN(C)CC4)cn3)ncc2Cl)c1 .
[A] 101
